# PROTOCOL_SUMMARY: Chemical and isotopic stability as solutions in DMSO/phosphate buffered saline over 48 hours
# CONDITION_DESCRIPTION: DMSO/PBS solution, 37° C., 24 h
Reported values of HPLC Assay for individual entries
Hi! Could you send only the number? It should be in %, unit omitted.

Past entries and their recorded results:
STRUCTURE_SMILES	HPLC Assay (%)
[2H]C([2H])([2H])C(CCCCCCCCCCCCCCC(C(=O)O)(C([2H])([2H])[2H])C([2H])([2H])[2H])(C(=O)O)C([2H])([2H])[2H]	66.8
[2H]C([2H])([2H])C(CCCCCCCCCCC(C([2H])([2H])[2H])(C([2H])([2H])[2H])C([2H])([2H])C(=O)O)(C([2H])([2H])[2H])C([2H])([2H])C(=O)O	89.3
[2H]C([2H])(C(=O)O)C(C)(C)CCCCCCCCCCC(C)(C)C([2H])([2H])C(=O)O	86.0
[2H]C([2H])(C(=O)O)C(C)(C)CCCCCCCCCCCCC(C)(C)C([2H])([2H])C(=O)O	95.3
[2H]C([2H])([2H])C(CCCCCCCCCCCCC(C(=O)O)(C([2H])([2H])[2H])C([2H])([2H])[2H])(C(=O)O)C([2H])([2H])[2H]	92.3
[2H]C([2H])([2H])C(CCCCCCCCCCCCC(CC(=O)O)(C([2H])([2H])[2H])C([2H])([2H])[2H])(CC(=O)O)C([2H])([2H])[2H]	39.8

INPUT: Give the measured HPLC Assay of [2H]C([2H])([2H])C(CCCCCCCCCCC(CC(=O)O)(C([2H])([2H])[2H])C([2H])([2H])[2H])(CC(=O)O)C([2H])([2H])[2H] .
OUTPUT: 46.0

INPUT: Give the measured HPLC Assay of [2H]C([2H])([2H])C(CCCCCCCCCCCCC(C([2H])([2H])[2H])(C([2H])([2H])[2H])C([2H])([2H])C(=O)O)(C([2H])([2H])[2H])C([2H])([2H])C(=O)O .
OUTPUT: 93.8

----------
# PROTOCOL_SUMMARY: Chemical and isotopic stability as solutions in DMSO/phosphate buffered saline over 48 hours
# CONDITION_DESCRIPTION: DMSO/PBS solution, 37° C., 48 h
Reported values of HPLC Area Percentage for individual entries
Hi! Could you send only the number? It should be in %, unit omitted.

Past entries and their recorded results:
STRUCTURE_SMILES	NUMERIC_READOUT
[2H]C([2H])([2H])C(CCCCCCCCCCC(C([2H])([2H])[2H])(C([2H])([2H])[2H])C([2H])([2H])C(=O)O)(C([2H])([2H])[2H])C([2H])([2H])C(=O)O	97.5
[2H]C([2H])([2H])C(CCCCCCCCCCCCCCC(C(=O)O)(C([2H])([2H])[2H])C([2H])([2H])[2H])(C(=O)O)C([2H])([2H])[2H]	97.2

Next up:
INPUT: Give the measured HPLC Area Percentage of [2H]C([2H])(C(=O)O)C(C)(C)CCCCCCCCCCCCC(C)(C)C([2H])([2H])C(=O)O .
OUTPUT: 98.0

----------
Reported values of t1/2 for individual entries
# PROTOCOL_SUMMARY: Comparative oral bioavailability / pharmacokinetic study, single intravenous and oral administration
# Assay type: in vivo
# CONDITION_DESCRIPTION: rat, 5 mg/kg iv dose, Mean CV (%)

COMPOUND	t1/2
CC(C)(CCCCCCCCCCCCC(C)(C)C(=O)O)C(=O)O [Compound 7″, reference compound]	2.18 (19.1%) h
[2H]C([2H])([2H])C(CCCCCCCCCCC(C([2H])([2H])[2H])(C([2H])([2H])[2H])C([2H])([2H])C(=O)O)(C([2H])([2H])[2H])C([2H])([2H])C(=O)O	2.81 (28.5%) h

INPUT: Give the measured t1/2 of [2H]C([2H])([2H])C(CCCCCCCCCCCCC(C(=O)O)(C([2H])([2H])[2H])C([2H])([2H])[2H])(C(=O)O)C([2H])([2H])[2H] .
OUTPUT: 2.14 (2.6%) h

INPUT: Give the measured t1/2 of CC(C)(CCCCCCCCCCC(C)(C)CC(=O)O)CC(=O)O [Compound 1″, reference compound] .
OUTPUT: 2.68 (6.0%) h

----------
# PROTOCOL_SUMMARY: Chemical and isotopic stability as solutions in DMSO/phosphate buffered saline over 48 hours
# CONDITION_DESCRIPTION: DMSO/PBS solution, 37° C., 24 h
OUTCOME_MEASURE: GC/MS IE (isotopic enrichment) (%)
Hi! Could you send only the number? It should be in %, unit omitted.

STRUCTURE_SMILES	GC/MS IE (isotopic enrichment) [%]
[2H]C([2H])([2H])C(CCCCCCCCCCC(CC(=O)O)(C([2H])([2H])[2H])C([2H])([2H])[2H])(CC(=O)O)C([2H])([2H])[2H]	99.9
[2H]C([2H])(C(=O)O)C(C)(C)CCCCCCCCCCCCC(C)(C)C([2H])([2H])C(=O)O	96.0
[2H]C([2H])(C(=O)O)C(C)(C)CCCCCCCCCCC(C)(C)C([2H])([2H])C(=O)O	98.0
[2H]C([2H])([2H])C(CCCCCCCCCCCCC(C([2H])([2H])[2H])(C([2H])([2H])[2H])C([2H])([2H])C(=O)O)(C([2H])([2H])[2H])C([2H])([2H])C(=O)O	98.4
[2H]C([2H])([2H])C(CCCCCCCCCCCCCCC(C(=O)O)(C([2H])([2H])[2H])C([2H])([2H])[2H])(C(=O)O)C([2H])([2H])[2H]	99.9

INPUT: Give the measured GC/MS IE (isotopic enrichment) of [2H]C([2H])([2H])C(CCCCCCCCCCCCC(C(=O)O)(C([2H])([2H])[2H])C([2H])([2H])[2H])(C(=O)O)C([2H])([2H])[2H] .
OUTPUT: 99.9

INPUT: Give the measured GC/MS IE (isotopic enrichment) of [2H]C([2H])([2H])C(CCCCCCCCCCCCC(CC(=O)O)(C([2H])([2H])[2H])C([2H])([2H])[2H])(CC(=O)O)C([2H])([2H])[2H] .
OUTPUT: 99.0

INPUT: Give the measured GC/MS IE (isotopic enrichment) of [2H]C([2H])([2H])C(CCCCCCCCCCC(C([2H])([2H])[2H])(C([2H])([2H])[2H])C([2H])([2H])C(=O)O)(C([2H])([2H])[2H])C([2H])([2H])C(=O)O .
OUTPUT: 98.3

----------
# PROTOCOL_SUMMARY: Chemical and isotopic stability as solutions in DMSO/phosphate buffered saline over 48 hours
# CONDITION_DESCRIPTION: DMSO/PBS solution, 37° C., all samples through the study
OUTCOME_MEASURE: chemical purity (HPLC area percent) with respect to related substances

STRUCTURE_SMILES	RESULT
[2H]C([2H])(C(=O)O)C(C)(C)CCCCCCCCCCC(C)(C)C([2H])([2H])C(=O)O	around 96%
[2H]C([2H])([2H])C(CCCCCCCCCCCCC(C(=O)O)(C([2H])([2H])[2H])C([2H])([2H])[2H])(C(=O)O)C([2H])([2H])[2H]	around 96%

----------
Reported values of GC/MS IE (isotopic enrichment) for individual entries
# PROTOCOL_SUMMARY: Chemical and isotopic stability as solutions in DMSO/phosphate buffered saline over 48 hours
# CONDITION_DESCRIPTION: Original Sample (before the stability study)
Hi! Could you send only the number? It should be in %, unit omitted.

Past entries and their recorded results:
STRUCTURE_SMILES	READING_UNIT	GC/MS IE (isotopic enrichment)
[2H]C([2H])([2H])C(CCCCCCCCCCCCC(C(=O)O)(C([2H])([2H])[2H])C([2H])([2H])[2H])(C(=O)O)C([2H])([2H])[2H]	%	99.9
[2H]C([2H])([2H])C(CCCCCCCCCCCCC(C([2H])([2H])[2H])(C([2H])([2H])[2H])C([2H])([2H])C(=O)O)(C([2H])([2H])[2H])C([2H])([2H])C(=O)O	%	98.3

INPUT: Give the measured GC/MS IE (isotopic enrichment) of [2H]C([2H])([2H])C(CCCCCCCCCCC(C([2H])([2H])[2H])(C([2H])([2H])[2H])C([2H])([2H])C(=O)O)(C([2H])([2H])[2H])C([2H])([2H])C(=O)O .
OUTPUT: 98.3

INPUT: Give the measured GC/MS IE (isotopic enrichment) of [2H]C([2H])([2H])C(CCCCCCCCCCCCCCC(C(=O)O)(C([2H])([2H])[2H])C([2H])([2H])[2H])(C(=O)O)C([2H])([2H])[2H] .
OUTPUT: 99.9
